# ASSAY_TARGET: K (Kappa) opioid receptor (K sites) (Cavia porcellus)
# Construct: performed on fresh guinea pig brain homogenate; from tissue; host or cells: guinea pig whole brain without cerebellum, homogenate
# ASSAY_SUMMARY: Opiate receptor binding to K sites (tritiated Ethylketocyclazocine)
# Design: species or system guinea pig
# COND: guinea pig brain homogenate, tritiated Ethylketocyclazocine with 100 nM DADLE and 100 nM DAGO, 25° C., 40 min; read-out: Ki, opiate receptor binding, K
Where a name gives a salt, the structure may show the parent alone.
molecules and their reported log10 of Ki
Reminder: these figures are log10 of reported Ki, in nM before transformation.

[
  {
    "MOLECULE": "O=C(Cc1ccc(C(F)(F)F)cc1)N1CCCCC1CN1CCCC1 (racemic) [Example 5, hydrochloride]",
    "REPORTED_MEASUREMENT": 0.56
  }
]

Pending molecule:
Specify reported log10 of Ki for the molecule shown: O=C(Cc1cccc([N+](=O)[O-])c1)N1CCCCC1CN1CCCC1 (racemic) [Example 1, hydrochloride]
0.78

----------
# ASSAY_TARGET: K (Kappa) opioid receptor (K sites) (Cavia porcellus, UniProt P41144)
# Construct: performed on fresh guinea pig brain homogenate; from tissue; host or cells: guinea pig whole brain without cerebellum, homogenate
# Sequence (P41144 whole entry): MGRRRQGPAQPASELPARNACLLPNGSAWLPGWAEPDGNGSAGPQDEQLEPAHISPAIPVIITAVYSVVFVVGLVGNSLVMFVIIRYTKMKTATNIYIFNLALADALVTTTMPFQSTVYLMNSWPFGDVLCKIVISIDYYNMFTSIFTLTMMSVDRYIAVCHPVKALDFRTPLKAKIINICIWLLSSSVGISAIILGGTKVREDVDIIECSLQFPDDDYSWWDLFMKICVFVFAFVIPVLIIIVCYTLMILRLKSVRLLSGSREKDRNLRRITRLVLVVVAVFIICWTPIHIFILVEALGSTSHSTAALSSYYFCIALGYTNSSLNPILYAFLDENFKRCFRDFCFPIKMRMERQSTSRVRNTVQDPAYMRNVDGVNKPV
# ASSAY_SUMMARY: Opiate receptor binding to K sites (tritiated Ethylketocyclazocine)
# Set-up: species or system guinea pig
Counter-ions that a name gives are not always drawn.
MEASURED_ATTRIBUTE: pKi
The scale used: pKi is minus the common logarithm of the concentration in molar units.

Specify reported pKi for the compound shown: O=C(Cc1ccc(C(F)(F)F)cc1)N1CCCC[C@H]1CN1CCCC1 [Example 3, hydrochloride sesquihydrate]
8.39

----------
# ASSAY_TARGET: μ opioid receptor (μ sites) (Cavia porcellus, UniProt A0ACM8Q262)
# Construct: 3H-DAGO displacement
# Sequence (A0ACM8Q262 1-400): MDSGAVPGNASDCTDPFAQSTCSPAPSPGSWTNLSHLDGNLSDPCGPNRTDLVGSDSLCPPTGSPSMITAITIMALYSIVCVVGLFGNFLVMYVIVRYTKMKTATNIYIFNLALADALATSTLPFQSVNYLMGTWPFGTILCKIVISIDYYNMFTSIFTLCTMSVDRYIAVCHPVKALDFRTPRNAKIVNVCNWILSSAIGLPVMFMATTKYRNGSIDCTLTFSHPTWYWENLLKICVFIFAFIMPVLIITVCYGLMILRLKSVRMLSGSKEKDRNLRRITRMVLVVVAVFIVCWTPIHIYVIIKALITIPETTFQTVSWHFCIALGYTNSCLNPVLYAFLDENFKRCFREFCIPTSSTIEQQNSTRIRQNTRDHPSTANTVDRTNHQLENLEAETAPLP
# ASSAY_SUMMARY: Opiate receptor binding to μ sites (3H-DAGO)
# COND: read-out: Ki, opiate receptor binding, μ, guinea pig brain homogenate, 25° C., 40 min
Counter-ions that a name gives are not always drawn.
MEASURED_ATTRIBUTE: Ki (nM)
Quick note: give the figure in nM, leave out the unit.

Specify reported Ki for the compound shown: O=C(Cc1ccc(C(F)(F)F)cc1)N1CCCC[C@H]1CN1CCCC1 [Example 3, hydrochloride sesquihydrate]
2540

----------
compounds and their reported Ki
# ASSAY_TARGET: μ opioid receptor (μ sites) (Cavia porcellus, UniProt A0ACM8Q262)
# Construct: 3H-DAGO displacement
# ASSAY_SUMMARY: Opiate receptor binding to μ sites (3H-DAGO)
# COND: guinea pig brain homogenate, 25° C., 40 min, read-out: Ki, opiate receptor binding, μ
Counter-ions that a name gives are not always drawn.

Below are worked cases with known answers.
[
  {
    "COMPOUND": "O=C(Cc1ccc(Br)cc1)N1CCCCC1CN1CCCC1 (racemic) [Example 6, hydrochloride]",
    "ASSAY_TARGET": "μ opioid receptor (μ sites) (Cavia porcellus, UniProt A0ACM8Q262)",
    "Ki": "3.13 µM"
  },
  {
    "COMPOUND": "O=C(Cc1cccc(C(F)(F)F)c1)N1CCCCC1CN1CCCC1 (racemic) [Example 2, hemihydrate]",
    "ASSAY_TARGET": "μ opioid receptor (μ sites) (Cavia porcellus, UniProt A0ACM8Q262)",
    "Ki": "> 10 µM"
  },
  {
    "COMPOUND": "O=C(Cc1ccc(C(F)(F)F)cc1)N1CCCCC1CN1CCCC1 (racemic) [Example 5, hydrochloride]",
    "ASSAY_TARGET": "μ opioid receptor (μ sites) (Cavia porcellus, UniProt A0ACM8Q262)",
    "Ki": "3.09 µM"
  },
  {
    "COMPOUND": "O=C(Cc1cccc([N+](=O)[O-])c1)N1CCCCC1CN1CCCC1 (racemic) [Example 1, hydrochloride]",
    "ASSAY_TARGET": "μ opioid receptor (μ sites) (Cavia porcellus, UniProt A0ACM8Q262)",
    "Ki": "> 10 µM"
  }
]

Pending compound:
Specify reported Ki for the compound shown: O=C(Cc1ccc([N+](=O)[O-])cc1)N1CCCCC1CN1CCCC1 (racemic) [Example 4, hydrochloride]
12.8 µM
